molecular target: enteropeptidase (Homo sapiens)
Sequence (P98073 whole entry): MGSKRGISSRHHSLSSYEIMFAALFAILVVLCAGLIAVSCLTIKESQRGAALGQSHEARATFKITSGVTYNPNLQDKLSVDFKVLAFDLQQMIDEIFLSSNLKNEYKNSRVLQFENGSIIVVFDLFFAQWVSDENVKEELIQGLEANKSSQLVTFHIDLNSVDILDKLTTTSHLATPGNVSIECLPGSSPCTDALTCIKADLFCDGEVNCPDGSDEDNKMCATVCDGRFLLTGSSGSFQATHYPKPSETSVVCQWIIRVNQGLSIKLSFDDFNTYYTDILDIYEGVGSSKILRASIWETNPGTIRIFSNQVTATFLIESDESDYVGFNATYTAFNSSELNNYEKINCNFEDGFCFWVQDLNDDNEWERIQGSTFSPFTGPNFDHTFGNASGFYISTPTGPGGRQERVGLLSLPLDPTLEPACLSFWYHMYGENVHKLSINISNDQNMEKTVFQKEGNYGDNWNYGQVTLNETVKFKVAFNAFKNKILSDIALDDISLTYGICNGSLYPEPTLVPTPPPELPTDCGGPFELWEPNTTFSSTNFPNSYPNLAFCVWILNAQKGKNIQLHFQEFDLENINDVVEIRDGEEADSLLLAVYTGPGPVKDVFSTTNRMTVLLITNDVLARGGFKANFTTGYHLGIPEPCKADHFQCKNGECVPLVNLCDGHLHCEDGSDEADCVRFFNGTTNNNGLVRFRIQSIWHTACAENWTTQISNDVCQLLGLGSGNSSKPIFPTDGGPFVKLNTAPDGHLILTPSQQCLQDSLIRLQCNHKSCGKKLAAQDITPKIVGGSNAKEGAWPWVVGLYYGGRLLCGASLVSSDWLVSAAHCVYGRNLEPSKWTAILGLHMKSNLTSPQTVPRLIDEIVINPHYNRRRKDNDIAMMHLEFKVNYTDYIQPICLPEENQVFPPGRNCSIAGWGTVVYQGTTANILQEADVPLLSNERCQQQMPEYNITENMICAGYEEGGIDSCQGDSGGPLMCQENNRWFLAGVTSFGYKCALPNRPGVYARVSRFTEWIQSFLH
Residues, ends and D or L forms follow the SMILES beside them.

[
  {
    "COMPOUND": "CC(=O)N[C@@H](CC(C)C)C(=O)N[C@H](C(=O)N[C@H](C=O)CCCCN)C(C)C [AC-Leu-Val-Lys-Aldhehyde] (Ac-Leu-Val-Lys-aldehyde)",
    "SUBJECT OF TEST": "enteropeptidase (Homo sapiens)",
    "IC50": "~3 µM"
  }
]

###

system: people having Type II diabetes; test: Treating Type II diabetes: blood glucose study; assay type: in vivo, human; details: Example 7, groups 1 to 7, two months, versus control group (placebo)

[
  {
    "SMILES REPRESENTATION": "CC(C)(C)NC(=O)[C@@H]1C[C@@H]2CCCC[C@@H]2CN1C[C@@H](O)[C@H](Cc1ccccc1)NC(=O)[C@H](CC(N)=O)NC(=O)c1ccc2ccccc2n1",
    "levels of blood glucose": "significantly reduced"
  },
  {
    "SMILES REPRESENTATION": "COC(=O)N[C@H](C(=O)N[C@@H](Cc1ccccc1)[C@@H](O)CN(Cc1ccc(-c2ccccn2)cc1)NC(=O)[C@@H](NC(=O)OC)C(C)(C)C)C(C)(C)C",
    "levels of blood glucose": "significantly reduced"
  },
  {
    "SMILES REPRESENTATION": "CC(C)CN(C[C@@H](OP(=O)(O)O)[C@H](Cc1ccccc1)NC(=O)O[C@H]1CCOC1)S(=O)(=O)c1ccc(N)cc1",
    "levels of blood glucose": "significantly reduced"
  }
]

###

test system: persons having hyperlipidemia; test: Treating hyperlipidemia: fasting lipid profile study; type: in vivo, human; settings: Example 9, groups 1 to 7, two months, fasting (9-12 hours), versus control group
MEASUREMENT NAME: levels of HDL

[
  {
    "COMPOUND": "Cc1c(O)cccc1C(=O)N[C@@H](CSc1ccccc1)[C@H](O)CN1C[C@H]2CCCC[C@H]2C[C@H]1C(=O)NC(C)(C)C [nelfinavir]",
    "MEASUREMENT NAME": "levels of HDL",
    "RECORDED MEASUREMENT": "higher"
  },
  {
    "COMPOUND": "CC(C)CN(C[C@@H](OP(=O)(O)O)[C@H](Cc1ccccc1)NC(=O)O[C@H]1CCOC1)S(=O)(=O)c1ccc(N)cc1 [fosamprenavir]",
    "MEASUREMENT NAME": "levels of HDL",
    "RECORDED MEASUREMENT": "higher"
  },
  {
    "COMPOUND": "CC(C)CN(C[C@@H](O)[C@H](Cc1ccccc1)NC(=O)O[C@H]1CCOC1)S(=O)(=O)c1ccc(N)cc1 [amprenavir]",
    "MEASUREMENT NAME": "levels of HDL",
    "RECORDED MEASUREMENT": "higher"
  }
]

Source of measurements: patent US20070298025A1
